Data origin: PubChem BioAssay (Tox21)

# systemUnderTest: Estrogen receptor (Homo sapiens) (UniProt P03372)
# Sequence (P03372 whole entry, looked up): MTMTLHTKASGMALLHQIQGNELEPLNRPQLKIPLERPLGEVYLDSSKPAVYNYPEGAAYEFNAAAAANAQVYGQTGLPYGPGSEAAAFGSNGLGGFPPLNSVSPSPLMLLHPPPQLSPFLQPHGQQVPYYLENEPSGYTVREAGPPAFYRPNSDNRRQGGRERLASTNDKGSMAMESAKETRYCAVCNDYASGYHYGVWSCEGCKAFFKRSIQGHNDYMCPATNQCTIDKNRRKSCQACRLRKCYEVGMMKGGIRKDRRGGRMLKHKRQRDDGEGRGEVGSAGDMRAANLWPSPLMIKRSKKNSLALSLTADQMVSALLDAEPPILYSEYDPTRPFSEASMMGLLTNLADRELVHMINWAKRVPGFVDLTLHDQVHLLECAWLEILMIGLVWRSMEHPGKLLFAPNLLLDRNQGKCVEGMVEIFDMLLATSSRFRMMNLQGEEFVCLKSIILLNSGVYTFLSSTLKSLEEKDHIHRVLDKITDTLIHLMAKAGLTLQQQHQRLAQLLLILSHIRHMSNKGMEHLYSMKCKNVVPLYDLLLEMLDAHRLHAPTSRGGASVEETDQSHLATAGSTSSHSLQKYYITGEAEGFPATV
# protocolSummary: qHTS assay to identify small molecule antagonists of the estrogen receptor alpha (ER-alpha) signaling pathway using the BG1 cell line in the presence of 0.1 nM 17-beta-estradiol (AID 1259244); also: nearly all actives have a fitted effect of over 50% in size
# conditionSet: VM7Luc4E2 (BG1) ERE-luciferase, antagonist mode, 0.1 nM E2, 22 h; series mostly up to 92.4 µM
Results filed as inconclusive are left out. The source made the active and inactive calls. Calls follow the shape of the dose curve; as a rule, active = well fitted inhibition curve with a large enough effect in the repeat runs; inconclusive = weak or mixed curves; inactive = no such curve, though single readings can be large or run the other way.
Assign a class; possible classes are active, inactive

# molecule, labelValue
measured = [
    ("CC(=O)N(c1onc(C)c1C)S(=O)(=O)c1ccc(N)cc1", "inactive"),
    ("Oc1cc(O)c(Cl)cc1Cl", "inactive"),
    ("O=C1NCCN1", "inactive"),
    ("CC(N)CN (stereo not drawn)", "inactive"),
    ("ON(Cc1ccccc1)Cc1ccccc1", "inactive"),
]

Please state the recorded outcome for this molecule: `O=Cc1c(Cl)cccc1Cl`
inactive

Status in this test for `CCNC(=O)N1CCN(CCCC(c2ccc(F)cc2)c2ccc(F)cc2)CC1` ?
active

---

# protocolSummary: qHTS RealTime-Glo MT Cell Viability Assay in HepG2 cells - 8 hour (AID 1224873); also: nearly all actives have a fitted effect of over 55% in size
# conditionSet: RealTime-Glo luminescence; series mostly up to 76.8 µM
Inconclusive results are not listed. Activity calls are given as the source filed them. Calls come from the whole dose curve; as a rule, active = well fitted cell-killing curve with a large enough effect in the repeat runs; inconclusive = weak or mixed curves; inactive = flat fitted curve, though single readings scatter.
Could you please pick one outcome from this set? t for active, f for inactive

# smilesEntry, labelValue
rows = [
    ("Nc1ccc(Cl)cc1[N+](=O)[O-]", "f"),
    ("CN1CCN(CCCN2c3ccccc3Sc3ccc(S(=O)(=O)N(C)C)cc32)CC1", "f"),
    ("Fc1c(F)c(F)c(Br)c(F)c1F", "f"),
    ("Nc1nc(Cl)nc2c1ncn2[C@@H]1O[C@H](CO)[C@@H](O)[C@@H]1F", "f"),
    ("OC/C(Br)=C(\\Br)CO", "f"),
]

// param item: `Cc1ccc(Nc2nccc(N(C)c3ccc4c(C)n(C)nc4c3)n2)cc1S(N)(=O)=O` ; yields the recorded call
f

Outcome? `O=C1NCCN1`
f

Call for entry `CCOC(=O)OCC` :
f

How was `CC(=N\O)/C(C)=N/O` classified in this test?
f

Give the logged outcome of this assay for the following molecule: `CC[C@H](NC(=O)c1cc(F)ccc1NS(=O)(=O)c1cccc2cccnc12)c1ccccc1`
t

---

# protocolSummary: A CellTox Green Cytotoxicity Assay to monitor cytotoxicity in HEK293 cells - 24 hour (AID 1224875); also: nearly all actives have a fitted effect of over 45% in size
# conditionSet: CellTox Green fluorescence; series mostly up to 76.8 µM
Inconclusive results are not listed. Calls of active or inactive are those of the source. The call rests on the fitted dose curve; in most records, active means well fitted activation curve with a large enough effect in the repeat runs; inconclusive means weak or mixed curves; inactive means flat fitted curve, though single readings scatter.
Return exactly one item of TRUE (active), FALSE (inactive)

Field: example entries. Status: answers known.
# compound, labelValue
data = [
    ("c1cnc2c(n1)CCCC2", "TRUE"),
    ("CC(CCc1ccc2c(c1)OCO2)NN (stereo unspecified)", "FALSE"),
    ("N#C/C(=C1/SC[C@@H](c2ccc(Cl)cc2Cl)S1)n1ccnc1", "FALSE"),
    ("Cc1cc(C(=C2C=CC(=Nc3ccc(S(=O)(=O)O)cc3S(=O)(=O)O)C=C2)c2ccc(Nc3ccc(S(=O)(=O)O)cc3)cc2)ccc1N", "FALSE"),
    ("CCC(Cc1ccccc1)(C(=O)c1ccc(N2CCOCC2)cc1)N(C)C (stereo unspecified)", "FALSE"),
]

// outcome(item) with item = CC(Cl)C(Cl)Cl (stereo unspecified)
TRUE

Field: outcome | Entry: `Cc1ccc(Nc2nccc(N(C)c3ccc4c(C)n(C)nc4c3)n2)cc1S(N)(=O)=O`
FALSE

Recorded test outcome, item `Cc1ccnc2ccccc12`
FALSE

Hello, I am checking results. What call was entered for `COC(=O)c1cc(S(N)(=O)=O)ccc1OC` ?
FALSE

Hi, sorry to bother you, what did the test record for `CC(C)CCCCCOC(=O)CCCCC(=O)OCCCCCC(C)C` ?
FALSE

What outcome does the record of this test show for `CCCOC(=O)c1ccc(C(=O)OCCC)nc1` ?
FALSE

Hi, do you know how `Oc1cc(O)c(Cl)cc1Cl` came out in this test?
FALSE
